PARAMETER MEASURED: melting point

>>> result("CN(C)S(=O)(=O)CCc1ccccc1S(N)(=O)=O")
"134 to 136 °C"
>>> result("CC(O)c1ncnc(N2CCN(S(=O)(=O)N(C)C)CC2)n1 (configuration not stated)")
"124 to 125 °C"
>>> result("COc1ccc2nccc(NC(=O)N3CCN(CC(O)c4cnc5ccccc5n4)CC3)c2n1 (configuration not stated)")
"133 to 135 °C"
>>> result("CCOC(=O)c1nn(Cc2ccccc2F)c2ncccc12")
"85 °C"
>>> result("COC(=O)CCC(C(=O)C=Cc1ccc(OC(C)=O)c(OC(F)(F)F)c1)C(=O)C=Cc1ccc(OC(C)=O)c(OC(F)(F)F)c1 (configuration not stated)")
"149 to 150 °C"
>>> result("COC(=O)c1ccccc1-c1nc2cc(CBr)ccc2o1")
"92 to 95 °C"

Let's switch to this compound now.
[Q] Give me measured melting point, please, for this compound: CC(C)C(N)CN1CCC(Nc2nc3ccccc3[nH]2)CC1 (configuration not stated)
[A] 138 °C

Data provenance is a melting point compilation (Tetko et al.; mined from patent text by program, amines drawn as free bases though some values may be those of a salt).
